Entries and their IC50 values follow.
- Target: beta-catenin (human)
- Sequence (B6V8E6 146-665 limits assumed): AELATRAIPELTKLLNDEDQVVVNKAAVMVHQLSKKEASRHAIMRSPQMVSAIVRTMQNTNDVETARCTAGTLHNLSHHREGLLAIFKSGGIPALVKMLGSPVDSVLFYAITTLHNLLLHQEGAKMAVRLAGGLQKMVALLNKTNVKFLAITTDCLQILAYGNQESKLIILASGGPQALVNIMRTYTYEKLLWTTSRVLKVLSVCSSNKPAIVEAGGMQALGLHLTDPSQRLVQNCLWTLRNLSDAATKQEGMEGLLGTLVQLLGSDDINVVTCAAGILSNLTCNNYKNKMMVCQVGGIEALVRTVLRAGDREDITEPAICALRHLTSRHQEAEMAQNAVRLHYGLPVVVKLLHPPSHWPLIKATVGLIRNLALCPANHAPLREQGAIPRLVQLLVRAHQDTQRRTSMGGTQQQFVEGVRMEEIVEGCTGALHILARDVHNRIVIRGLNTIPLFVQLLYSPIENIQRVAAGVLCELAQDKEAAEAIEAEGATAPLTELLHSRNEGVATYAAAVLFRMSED
- Protocol description: fluorescence polarization
*1 amine or outer side, *2 acyl side, *3 side chain or, on linkers, in order; H or OH if unused. Bridges are numbered along the chain shown (N, C = ends). Primed or numbered codes have the meaning given here. [ ]: non-standard residue; d: D form. Phe(3-COOH) = N[C@@H](Cc1cccc(C(=O)O)c1)C(=O)O; 2F3MeF = Cc1cccc(C[C@H](N[*:1])C(=O)[*:2])c1F; Bta = N[C@@H](Cc1csc2ccccc12)C(=O)O; tBuAla = CC(C)(C)C[C@H](N)C(=O)O; Cha = N[C@@H](CC1CCCCC1)C(=O)O; PyrS2(4) = not defined here; hSer = N[C@@H](CCO)C(=O)O; TfeGA = not defined here; GlnR = not defined here; PL3 = not defined here; B5 = not defined here

Ac-[PL3][hSer][tBuAla][B5]D[TfeGA]AAFK[PyrS2(4)][2F3MeF][Bta][GlnR]A-NH2 (staple 1-4; bridge 10-14; reading uncertain; also: PyrS2 tied into a staple, partner not placed) [I-116]; > 1000 nM
Ac-[PL3]D[tBuAla][B5]D[Phe(3-COOH)][Cha]AFK[PyrS2(4)][2F3MeF][Bta][GlnR]A-NH2 (staple 1-4; bridge 10-14; not fully specified (residue 10); printed as Ac-PL3-Asp-Npg-B5-Asp-3COOHF-Cha-Ala-Phe-Lys*3-PyrS2-2F3MeF-BztA-GlnR*3-Ala-NH2; reading uncertain; also: PyrS2 tied into a staple, partner not placed) [I-102]; < 50 nM

Now look at this one.
Consider Ac-[PL3]D[tBuAla][B5]D[TfeGA]AAFK[PyrS2(4)][2F3MeF][Bta][GlnR]A-NH2 (staple 1-4; bridge 10-14; reading uncertain; also: PyrS2 tied into a staple, partner not placed) [I-112] . Its measured IC50 is < 50 nM
